- target: UniProt P00491
- Sequence (P00491 whole entry): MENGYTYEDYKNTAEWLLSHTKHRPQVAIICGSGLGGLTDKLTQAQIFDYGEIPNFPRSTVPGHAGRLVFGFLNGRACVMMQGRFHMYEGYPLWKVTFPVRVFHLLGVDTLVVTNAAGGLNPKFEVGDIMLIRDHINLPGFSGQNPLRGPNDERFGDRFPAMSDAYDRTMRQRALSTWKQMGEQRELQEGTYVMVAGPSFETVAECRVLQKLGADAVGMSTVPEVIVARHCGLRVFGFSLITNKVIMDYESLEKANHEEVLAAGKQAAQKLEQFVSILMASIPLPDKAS
Hi there, I'd appreciate the recorded log10 of IC50 for every entry that follows.
Log scale reminder: IC50 in µM, then log10 taken.

In the examples that follow, each entry is paired with its recorded log10 of IC50.
| smiles string | target | observed measurement |
| --- | --- | --- |
| CCOC(=O)c1ccccc1NC(=O)CSc1nc2ccc(C)cc2c(=O)n1-c1ccccc1 | UniProt P00491 | 0.33 |
| CCOC(=O)N1CCC(NC(=O)CSc2nc3ccc(C)cc3c(=O)n2-c2ccccc2)CC1 | UniProt P00491 | 0.27 |
| COc1cc(NC(=O)CSc2nc3ccc(C)cc3c(=O)n2-c2ccccc2)cc(OC)c1 | UniProt P00491 | 0.12 |
| CCOC(=O)N1CCC(NC(=O)Cn2c(=S)n(-c3ccccc3)c(=O)c3cc(C)ccc32)CC1 | UniProt P00491 | -0.76 |
| CC(=O)c1ccccc1NC(=O)Cn1c(=S)n(-c2ccccc2)c(=O)c2cc(C)ccc21 | UniProt P00491 | 0.00 |

# lookup: CC(=O)c1ccccc1NC(=O)CSc1nc2ccc(C)cc2c(=O)n1-c1ccccc1 on UniProt P00491, log10 of IC50 = 0.53
